A compilation of published IC50 results with MAGL (Homo sapiens, UniProt Q99685).
The threshold is 200 nM. Values of IC50 beneath it are tagged Condition met; values meeting or exceeding it are tagged Condition not met.

> print(dat)
                                    compound  qualitative.label
 1  O=C(c1ccc2c(cnn2CCc2ccc(F)cc2)c1)N1CC(N2CCN(C(=O)c3nccs3)CC2)C1      Condition met
 2  O=C(c1cc2ccc(-c3cccc(C(F)(F)F)c3)cc2s1)N1CC(N[C@H]2CCN(C(=O)c3nccs3)C2)C1      Condition met
 3  COCc1ccccc1C#CC1CN(C(=O)N2CC[C@@H]3OCC(=O)N[C@@H]3C2)C1      Condition met
 4  O=C(c1ccccc1)N1CCC(O)(C2CN(C(=O)c3cc4cc(C(F)(F)F)ccc4s3)C2)CC1  Condition not met
 5  Cc1cccc(-n2ccc3cc(C(=O)N4CC(N5CCN(C(=O)c6nccs6)CC5)C4)ccc32)n1      Condition met
 6  CS(=O)(=O)Nc1ccn(C(=O)N2CCN(Cc3ccc(Cl)c(N4CC5COCC5C4)c3)CC2)n1 (stereo not drawn)      Condition met
 7  O=C(c1ccccc1)N1CCN(C2CN(C(=O)c3ccc4c(-c5ccccc5)ncnc4c3)C2)CC1  Condition not met
 8  O=C1N[C@H](CCC(=O)N2CC3(CC(Cc4cnc(C(F)(F)F)nc4)C3)C2)CO1  Condition not met
 9  COc1cccc(C(=O)N2CCN3C[C@@H](c4ccc(F)c(C#N)c4)OC[C@@H]3C2)c1Cl      Condition met
10  CC(C)Cc1nnc(-c2ccc(C(=O)N3CCN(c4nc5nc(Cl)ccc5o4)CC3)cc2)o1      Condition met
11  O=C(c1sc2cc(C(F)(F)F)ccc2c1Cl)N1CC(N2CCN(C(=O)c3cscn3)C(C(F)(F)F)C2)C1 (stereo not drawn)  Condition not met
12  O=C1N[C@H](CCC(=O)N2CC3(CCC(Cc4ccc(C(F)(F)F)nc4)CC3)C2)CO1      Condition met
13  CS(=O)(=O)Nc1ccn(C(=O)N2CCN(Cc3cccc(Cl)c3N3CC4CCC(C3)O4)CC2)n1      Condition met
14  Cc1c(C(=O)N2CC(N3CCN(C(=O)c4cscn4)CC3)C2)nn(-c2ccc(Cl)cc2Cl)c1-c1ccc(Cl)cc1      Condition met
15  COc1cccc(C(=O)N2CCN3C[C@](O)(c4ccc(C(F)(F)F)cn4)CC[C@H]3C2)c1Cl      Condition met

* * *

A compilation of published log10 of IC50 results with UniProt Q99685.
QUANTITY NAME: log10 of IC50 (log10 of the value in nM)

> print(dat)
                                    molecule  quantity.name  recorded.result
 1  O=C1CO[C@H]2CCN(C(=O)N3CC(c4ccc(C(F)(F)F)c(F)c4)C3)C[C@H]2N1  log10 of IC50             1.91
 2  O=C(c1cccc(-c2cccc(F)c2)c1)N1CC(C2CCN(C(=O)c3ccc[nH]3)CC2)C1  log10 of IC50             2.57
 3  O=C(c1ccc(-c2cccc(C(F)(F)F)c2)cc1)N1CC(N2CCN(C(=O)C3CC3(F)F)CC2)C1 (centres unmarked)  log10 of IC50             1.20
 4  O=C1N[C@H](CCC(=O)N2CC3(CC(Cc4ncc(C(F)(F)F)cn4)C3)C2)CO1  log10 of IC50             1.92
 5  COc1cccc2c(C)c(C(=O)N3CC(N4CCN(C(=O)c5cscn5)CC4)C3)[nH]c12  log10 of IC50             3.71
 6  O=C(c1cscn1)N1CCN(C2CN(C(=O)c3sc4cc(C(F)(F)F)c(F)cc4c3Cl)C2)CC1  log10 of IC50             1.11
 7  CC(C)(C)Cn1ncc(-c2c(F)cc(C(=O)N3CCN(c4nc5nc(Cl)ccc5o4)CC3)cc2F)n1  log10 of IC50             0.48
 8  O=C(c1cccc(-c2cccc(F)c2)c1)N1CC(C2CCN(C(=O)c3nccs3)CC2)C1  log10 of IC50             1.24
 9  O=C(N1CC2(CC(CC3=C4C=CC=[N+]4[B-](F)(F)n4c3ccc4-c3ccc[nH]3)C2)C1)N1CC2(CC(n3cnc(C4CC4)n3)C2)C1  log10 of IC50            -0.23
10  Cc1ccc(COC2CN(C(=O)N3CC[C@@H]4OCC(=O)N[C@@H]4C3)C2)cc1C(F)(F)F  log10 of IC50             3.48
11  O=C1CO[C@@H]2CCN(C(=O)N3CCC(C(c4ccc(F)cc4)c4ccc(F)cc4)CC3)C[C@H]2N1 (single isomer, unassigned)  log10 of IC50             2.32
12  Cc1ccncc1-c1cccc(C(=O)N2CCN3C[C@@H](c4ccc(F)c(Cl)c4)OC[C@@H]3C2)c1Cl  log10 of IC50             2.32
13  O=C1CO[C@@H]2CCN(C(=O)N3CC(c4ccc(Oc5ccccc5)cc4)C3)C[C@H]2N1 (single isomer, unassigned)  log10 of IC50             1.67
